Data credit: ChEMBL document CHEMBL1134493

System: Haemophilus influenzae
method summary: In vitro antibacterial activity against Haemophilus influenzae 11
Assay type: functional
reported metric: MIC

| mol smiles | reported metric | result |
| --- | --- | --- |
| O=C(CN1Cc2c(Cl)cccc2NC1=O)NO | MIC | 8 µg/mL |
| O=C(CN1Cc2c(Cl)cccc2NS1(=O)=O)NO | MIC | 16 µg/mL |
| O=C(CN1Cc2c(Br)cccc2NC1=O)NO | MIC | 16 µg/mL |
| O=C(CN1Cc2c(cccc2C(F)(F)F)NC1=O)NO | MIC | 64 µg/mL |
| O=C(CN1Cc2ccccc2NS1(=O)=O)NO | MIC | > 64 µg/mL |
| O=C(CN1Cc2c(Cl)cccc2N(CCCc2ccccc2)S1(=O)=O)NO | MIC | 32 µg/mL |
| O=C(CN1Cc2c(cccc2C(F)(F)F)NS1(=O)=O)NO | MIC | 32 µg/mL |
| O=C(CN1Cc2ccccc2NC1=O)NO | MIC | > 64 µg/mL |
| O=C(CN1Cc2c(Br)cccc2N(CC2CC2)S1(=O)=O)NO | MIC | 64 µg/mL |
| O=C(CN1Cc2c(F)cccc2NC1=O)NO | MIC | 64 µg/mL |
| CCCCN1c2cccc(Cl)c2CN(CC(=O)NO)S1(=O)=O | MIC | 64 µg/mL |
| O=C(CN1Cc2c(F)cccc2NS1(=O)=O)NO | MIC | > 64 µg/mL |
| O=C(CN1Cc2c(Cl)cccc2N(CC2CC2)S1(=O)=O)NO | MIC | 64 µg/mL |
| O=C(CN1Cc2c(Br)cccc2NS1(=O)=O)NO | MIC | > 64 µg/mL |
| O=C(CN1Cc2c(Cl)cccc2N(Cc2ccccc2)S1(=O)=O)NO | MIC | 32 µg/mL |
